Please respond with reported pull-down binding Z-score for every item in the list.
# Test system: TO-3-N3-2 (biotin conjugate)
# ASSAY DETAILS: pull-down binding Z-score (relative to library population); higher = stronger binding
# REPORTED CONDITIONS: RNA library: Library-2
Answers are plain numbers.

Record excerpt, results attached:
[[record]]
sequence = "CGUUCGGAUGCUCGAACUGCACCUCAUGGUCAUGUUAUGGUUGAGCUGGUAGCAGAACUCGAAGGCAUUCAGUACG [SHAPE_invitro_SARS-CoV-2_Motif_11]"
test_system = "TO-3-N3-2 (biotin conjugate)"
observed_measurement = -0.454

[[record]]
sequence = "UUUUAAUUUUUUUAAAA [hsa-mir-3606]"
test_system = "TO-3-N3-2 (biotin conjugate)"
observed_measurement = -0.175

[[record]]
sequence = "UUUUGCUAUUACUUUUAAAGGCAAAA [hsa-mir-548e]"
test_system = "TO-3-N3-2 (biotin conjugate)"
observed_measurement = 0.21


// batch mode: one pull-down binding Z-score value per listed entry
1. UCCUGGGAAGCAUGGUAGCCAGGA [hsa-mir-5192]
2. CCGGGGCAGGAGACCCCGCG [hsa-mir-1470]
3. UGAAUAUGUAAUAUAAGUGUAUUG [hsa-mir-450b]

**A:**
1: 0.431; 2: -0.34; 3: 0.32

List pull-down binding Z-score for every entry below, keeping the order given.
1. AAUGAGUUUUACGCAUAUUUGCGUAAACAUU
2. ACCGGUGGAAUUGCUAUCGCAAUGGCUUGUCUUGUAGGCUUGAUGUGGCUCAGCUACUUCAUUGCUUCUUUCAGACUGUUUGCGCGUACGCGUUCCAUGUGGU
3. CACUUAUCUUAGCCUACUGUAAUAAGACAGUAGGUGAGUUAGGUG
4. CUUCGCGCUAGUUUGUUUGUGUUAAG [hsa-mir-6077]
5. UCAGCUGUGGAAAGUAAGAAAGCUGG [hsa-mir-30c-2]
6. AUACCUGCACGUGCUCGUGUAGAGUGU

**A:**
1: -0.413; 2: 0.131; 3: -0.273; 4: 0.0164; 5: 1.22; 6: -0.0175

Consider the following items and state reported pull-down binding Z-score for each.
1. CUUGUGGUAUUAGUCCGCACAAG [hsa-mir-100]
2. AUUCUGGAGUCCAUCUAGAG [hsa-mir-1182]
3. UCUGCACUGUUAGCGGGUACAAUCACUUCUGGUUGGACCUUUGGUGCAGG
4. UAGGUGUUUUAAUGUCUAAUUUAGGCAUGCCUUCUUACUGUACUGGUUACAGAGAAGGCUAUUUGAACUCUACUAAUGUCACUAUUGCAACCUA
5. UGGAAGGAAUGGGAUCUACUUCCA [hsa-mir-3612]
6. UUUGCCGUUGCUUUUAAUGGUAAA [hsa-mir-548as]
7. ACCACUGUGAAGACAGUAAAAUGUACAGUGGU [hsa-mir-597]
8. UCUGCCUAUACAGUUGAACUCGGUACAGAAGUAAAUGAGUUCGCCUGUGUUGUGGCAGA [SHAPE_invivo_SARS-CoV-2_Motif_57]

**A:**
1: -0.161; 2: -0.378; 3: -0.38; 4: 0.0583; 5: 0.46; 6: -0.381; 7: -0.0901; 8: -0.334
